Below are compounds with their pKi as measured on Substance-P receptor (Homo sapiens).
Sequence (P25103 whole entry): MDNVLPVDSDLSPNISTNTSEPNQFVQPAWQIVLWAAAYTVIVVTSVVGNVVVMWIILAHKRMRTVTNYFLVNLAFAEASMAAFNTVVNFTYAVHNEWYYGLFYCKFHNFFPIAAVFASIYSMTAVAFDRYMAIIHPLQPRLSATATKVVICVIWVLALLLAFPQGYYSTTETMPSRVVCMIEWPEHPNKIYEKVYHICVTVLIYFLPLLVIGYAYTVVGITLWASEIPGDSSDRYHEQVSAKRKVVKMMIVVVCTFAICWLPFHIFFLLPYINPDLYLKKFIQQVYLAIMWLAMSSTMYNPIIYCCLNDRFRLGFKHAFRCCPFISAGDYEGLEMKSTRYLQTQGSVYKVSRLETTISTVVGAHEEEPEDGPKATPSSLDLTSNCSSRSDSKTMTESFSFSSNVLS
By convention, pKi is the negative base-10 log of a molar concentration.

query: Report the value of pKi obtained on Substance-P receptor (Homo sapiens) for CN(Cc1ccccc1)C(=O)[C@H](Cc1ccc2ccccc2c1)NC(=O)[C@@H]1CCCN1C(=O)Nc1ccccc1C(N)=O .
result: 9.10

query: Report the value of pKi obtained on Substance-P receptor (Homo sapiens) for CN(Cc1ccccc1)C(=O)[C@H](Cc1cn(C)c2ccccc12)NC(=O)[C@@H]1CCCN1/C(S)=N/Cc1ccccc1Cl .
result: 8.33

query: Report the value of pKi obtained on Substance-P receptor (Homo sapiens) for CN(Cc1ccccc1)C(=O)[C@H](Cc1c[nH]c2ccccc12)NC(=O)[C@@H]1CCCN1C(=S)NCc1ccccc1Cl .
result: 7.78

query: Report the value of pKi obtained on Substance-P receptor (Homo sapiens) for COCc1ccccc1NC(=O)N1CCC[C@H]1C(=O)N[C@@H](Cc1ccc2ccccc2c1)C(=O)N(C)Cc1ccccc1 .
result: 9.00

###

- target-or-system: Substance-P receptor (Cavia porcellus, UniProt P30547)
- Sequence (P30547 whole entry): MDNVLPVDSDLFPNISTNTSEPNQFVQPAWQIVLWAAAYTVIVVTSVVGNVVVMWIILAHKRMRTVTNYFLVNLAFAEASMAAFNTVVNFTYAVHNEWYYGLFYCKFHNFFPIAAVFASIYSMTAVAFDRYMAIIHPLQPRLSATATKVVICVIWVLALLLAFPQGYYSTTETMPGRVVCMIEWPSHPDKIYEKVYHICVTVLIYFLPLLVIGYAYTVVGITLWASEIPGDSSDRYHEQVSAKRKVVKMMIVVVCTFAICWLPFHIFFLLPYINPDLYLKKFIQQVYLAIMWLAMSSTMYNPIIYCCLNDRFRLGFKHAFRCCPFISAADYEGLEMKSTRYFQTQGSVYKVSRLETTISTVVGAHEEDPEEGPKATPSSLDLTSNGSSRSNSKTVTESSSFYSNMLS
- protocol-summary: Tachykinin receptor 1 antagonistic activity as inhibition of contractions evoked by 4 nM [Sar9,Met(O2)11]-SP in guinea pig ileum
- Type: functional, tissue-based
observed-property: pIC50
By convention, pIC50 is the negative base-10 log of a molar concentration.

query: Report the value of pIC50 obtained on Substance-P receptor (Cavia porcellus, UniProt P30547) for CN(Cc1ccccc1)C(=O)[C@H](Cc1ccc2ccccc2c1)NC(=O)[C@@H]1CCCN1C(=O)Nc1ccccc1N .
result: 7.68

query: Report the value of pIC50 obtained on Substance-P receptor (Cavia porcellus, UniProt P30547) for COC(=O)c1ccccc1NC(=O)N1CCC[C@H]1C(=O)N[C@@H](Cc1ccc2ccccc2c1)C(=O)N(C)Cc1ccccc1 .
result: 8.22

query: Report the value of pIC50 obtained on Substance-P receptor (Cavia porcellus, UniProt P30547) for CN(Cc1ccccc1)C(=O)[C@H](Cc1ccc2ccccc2c1)NC(=O)[C@@H]1CCCN1C(=O)Nc1ccc(C#N)cc1 .
result: 8.62

query: Report the value of pIC50 obtained on Substance-P receptor (Cavia porcellus, UniProt P30547) for CN(Cc1ccccc1)C(=O)[C@H](Cc1ccc2ccccc2c1)NC(=O)[C@@H]1CCCN1C(=O)Nc1ccccc1C#N .
result: 9.00

query: Report the value of pIC50 obtained on Substance-P receptor (Cavia porcellus, UniProt P30547) for CN(Cc1ccccc1)C(=O)[C@H](Cc1ccc2ccccc2c1)NC(=O)[C@@H]1CCCN1C(=O)Nc1ccccc1 .
result: 8.30

query: Report the value of pIC50 obtained on Substance-P receptor (Cavia porcellus, UniProt P30547) for CN(Cc1ccccc1)C(=O)[C@H](Cc1ccc2ccccc2c1)NC(=O)[C@@H]1CCCN1C(=O)Nc1cccnc1 .
result: 8.38

query: Report the value of pIC50 obtained on Substance-P receptor (Cavia porcellus, UniProt P30547) for COCc1ccccc1NC(=O)N1CCC[C@H]1C(=O)N[C@@H](Cc1ccc2ccccc2c1)C(=O)N(C)Cc1ccccc1 .
result: 8.92

query: Report the value of pIC50 obtained on Substance-P receptor (Cavia porcellus, UniProt P30547) for CN(Cc1ccccc1)C(=O)[C@H](Cc1ccc2ccccc2c1)NC(=O)[C@@H]1CCCN1C(=O)Nc1ccc(F)cc1 .
result: 7.76

query: Report the value of pIC50 obtained on Substance-P receptor (Cavia porcellus, UniProt P30547) for CN(Cc1ccccc1)C(=O)[C@H](Cc1ccc2ccccc2c1)NC(=O)[C@@H]1CCCN1C(=O)Nc1cccc(C#N)c1 .
result: 8.59
